Target: four repeat construct K18 (Homo sapiens, UniProt P10636)
Construct: made in house; host or cells: E. coli
Sequence (P10636 561-685 limits assumed): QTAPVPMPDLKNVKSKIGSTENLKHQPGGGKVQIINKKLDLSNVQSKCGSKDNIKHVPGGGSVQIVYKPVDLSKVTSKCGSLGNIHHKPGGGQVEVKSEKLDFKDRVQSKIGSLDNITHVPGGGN
Assay: Thioflavine S assay, inhibition of PHF formation, K18
Format: biochemical
Conditions: ThS fluorescence, K18, heparin; read-out: Inhibition of tau aggregation IC50, K18
Would you kindly list pIC50 for each of these compounds?
One number for each entry, as −log10 of the molar value.

Some entries whose results are on file:
* COc1cccc2c1C(=O)c1c(O)c3c(c(O)c1C2=O)CC(O)(C(C)=O)CC3OC1CC(N)C(O)C(C)O1 (stereo not shown) [Daunorubicin, reference compound] | 6.52
* O=C(c1ccccc1)c1ccc(O)c(O)c1O [PHF005] | 5.57

Take each entry in turn and give its pIC50.
1. Cc1cc(O)c2c(c1)C(=O)c1cc(O)cc(O)c1C2=O [Emodin, 1,3,8-Trihydroxy-6-methyl-anthraquinone]
2. O=C1c2ccc(O)c(O)c2C(=O)c2c(O)ccc(O)c21 [PHF016, 1,2,5,8-Tetrahydroxy-anthraquinone]

[6.52, 6.22]
